Measured values drawn from the array DNA melting data of Ke et al. (doi:10.1101/2024.01.08.574731) for this set.

Below: a set of entries, each annotated with reported Tm.
assayName: melting temperature; fluorescence melt of hairpins on a sequencing array, two-state fit, raised by 9.35 °C to match UV melts
measurementContext: sodium 0.088 M
propertyLabel: Tm (°C)

1) GGGTATCGAAAGATCCC (((.(((....)))))) : 49.7
2) GGCTGTACGAAAGTAGCC (((..(((....)))))) : 51.1
3) GCGGTCGAAAGACACCGC ((((((....)))..))) : 53.3
4) GATCAATGGATTGATC ((((((....)))))) : 45.2
5) GGTACCGGAAACGGTGCC ((.((((....)))).)) : 60.6
6) GGTTTGGGAAACCAGACC (((.(((....))).))) : 47.8
7) GCGGCTGGAAACAGCCAC (.(((((....))))).) : 51.8
8) GTGCTTCGAAAGAATCAC (((.(((....))).))) : 41.6
9) GATCTTGGGAAGATC ((((((...)))))) : 39.7
10) GCTGTGCGAAAGCAAGGC ((..(((....)))..)) : 50.6
11) GCAGACGGAAACGTCCGC ((.((((....)))).)) : 52.6
12) GATCGTTTGACGATC ((((((...)))))) : 55.5
13) GCCCGCCGAAAGGCGGC (((.(((....)))))) : 66.6
14) GGGAAGCCGAAAGGCCCC (((..(((....)))))) : 50.6
15) GCTATGGGAAACTGTAGC ((((..(....)..)))) : 36
16) GCAAGGCGAAAGCCCCGC ((..(((....)))..)) : 37
17) GGTATCCGAAAGGAAACC (((.(((....))).))) : 48.8
18) GATCTGCGTCCAGATC ((((((....)))))) : 48.3
19) GCTGTTGAAAAACAGC ((((((....)))))) : 59.2
20) GCACCCGGAAACGAGCGC ((.(.((....)).).)) : 34.7
21) GTACCCGCGAAAGCGTAC (((..(((....)))))) : 25.7
22) GATCCAAAGTTGGATC ((((((....)))))) : 49.8
23) GGGTGCGGAAACACACCC (((((.(....).))))) : 54.8
24) GCGGTCCGCCGC ((((....)))) : 63.6
25) ACACAGAAATGTGT (((((....))))) : 45.9
26) GCGCGAGGAAACTTGCGC ((((.((....)).)))) : 65.6
